# credit: ChEMBL document CHEMBL6087403

- SYSTEM TESTED: Alpha glucosidase (Homo sapiens, UniProt O43451+P10253+P14410+Q2M2H8)
- RUN DESCRIPTION: Inhibition of alpha-glucosidase (unknown origin)
- Assay type: protein assay
PROPERTY: IC50 (µM)

INSERT INTO assay_data (compound, system_tested, measure_unit, value_reported) VALUES
  ('COC(=O)C1=C(C)n2nnnc2N(C)C1c1ccccc1.Cl.Cl (stereo unspecified)', 'Alpha glucosidase (Homo sapiens, UniProt O43451+P10253+P14410+Q2M2H8)', 'µM', 65.1);

(A) CCOC(=O)C1=C(C)NC(SC)N(C)C1c1cccc(O)c1 (stereo unspecified)
(B) CCOC(=O)C1=C(C)n2nnnc2N(C)C1c1cccc(O)c1.Cl.Cl (stereo unspecified)
(Q) Select one. Lower IC50: A or B Output the label that corresponds to your choice.
(A) A

###

- SYSTEM TESTED: Alpha glucosidase (Homo sapiens, UniProt O43451+P10253+P14410+Q2M2H8)
- RUN DESCRIPTION: Inhibition of alpha-glucosidase (unknown origin)
- Type: protein assay
PROPERTY: IC50 (µM)

INSERT INTO assay_data (compound, value_reported) VALUES
  ('CCOC(=O)C1=C(C)NC(NN)N(C)C1c1ccccc1.Cl.Cl (stereo unspecified)', 31.1),
  ('CCOC(=O)C1=C(C)NC(SC)N(C)C1c1ccc([N+](=O)[O-])cc1 (stereo unspecified)', 33.3);

(A) CC1=C(C(=O)O)C(c2ccc(C)cc2)NC(=S)N1 (stereo unspecified)
(B) CC1=C(C(=O)[C@H](C)c2ccccc2)C(c2ccccc2)NC(=S)N1 (stereo partly specified)
(Q) Of A and B , whose reported IC50 is the larger number? Output the label that corresponds to your choice.
(A) B

(I) CCOC(=O)C1=C(C)NC(SC)N(C)C1c1ccccc1 (stereo unspecified)
(II) CC1=C(C(=O)[C@@H](C)c2ccccc2)C(c2ccc(C)cc2)NC(=S)N1 (stereo partly specified)
(Q) Of I and II , whose reported IC50 is the larger number? Output the label that corresponds to your choice.
(A) II

###

- SYSTEM TESTED: Alpha glucosidase (Homo sapiens, UniProt O43451+P10253+P14410+Q2M2H8)
- RUN DESCRIPTION: Inhibition of alpha-glucosidase (unknown origin)
- Format: protein assay
PROPERTY: IC50 (µM)

# example entries with known answers
INSERT INTO measurements (molecule, system_tested, property, value_reported) VALUES
  ('CCOC(=O)C1=C(C)n2nnnc2N(C)C1c1ccc(C)cc1.Cl.Cl (stereo unspecified)', 'Alpha glucosidase (Homo sapiens, UniProt O43451+P10253+P14410+Q2M2H8)', 'IC50', 61.1),
  ('CCOC(=O)C1=C(C)NC(SC)N(C)C1c1ccc(C)cc1 (stereo unspecified)', 'Alpha glucosidase (Homo sapiens, UniProt O43451+P10253+P14410+Q2M2H8)', 'IC50', 44.4),
  ('CCOC(=O)C1=C(C)NC(SC)N(C)C1c1cccc(OC)c1OC (stereo unspecified)', 'Alpha glucosidase (Homo sapiens, UniProt O43451+P10253+P14410+Q2M2H8)', 'IC50', 35.9);

(a) CCOC(=O)C1=C(C)NC(NN)N(C)C1c1cccc(O)c1.Cl.Cl (stereo unspecified)
(b) CC1=C(C(=O)[C@H](C)c2ccccc2)C(c2ccccc2Cl)NC(=S)N1 (stereo partly specified)
(c) CCOC(=O)C1=C(C)n2nnnc2N(C)C1c1ccccc1.Cl.Cl (stereo unspecified)
(d) CC1=C(C(=O)O)C(c2ccccc2Cl)NC(=S)N1 (stereo unspecified)
(Q) Order field: IC50 | Direction: descending (largest first) Please, when replying, give the labels in the order that was requested.
(A) a, c, b, d

(1) COC(=O)C1=C(C)NC(SC)N(C)C1c1ccccc1 (stereo unspecified)
(2) CC1=C(C(=O)[C@@H](C)c2ccccc2)C(c2ccccc2Cl)NC(=S)N1 (stereo partly specified)
(3) CC1=C(C(=O)[C@H](C)c2ccccc2)C(c2ccc(C)cc2)NC(=S)N1 (stereo partly specified)
(Q) Sort the molecules on IC50; start with the lowest figure. Please, when replying, give the labels in the order that was requested.
(A) 2, 3, 1

###

- SYSTEM TESTED: Alpha glucosidase (Homo sapiens, UniProt O43451+P10253+P14410+Q2M2H8)
- RUN DESCRIPTION: Inhibition of alpha-glucosidase (unknown origin)
- Assay type: protein assay
PROPERTY: IC50 (µM)

INSERT INTO measurements (compound, value_reported) VALUES
  ('CC1=C(C(=O)[C@@H](C)c2ccccc2)C(c2ccccc2)NC(=S)N1 (stereo partly drawn)', 61.1),
  ('CCOC(=O)C1=C(C)NC(NN)N(C)C1c1ccc([N+](=O)[O-])cc1.Cl.Cl (stereo not drawn)', 72.4),
  ('CCOC(=O)C1=C(C)NC(NN)N(C)C1c1ccc(C)cc1.Cl.Cl (stereo not drawn)', 71.1);
